target: T1, human CD117 on cells (SKMEL-3 cells, CD34+ HSC) (human, UniProt P10721 26-976); assay: flow cytometry, CD34+ HSC, monomeric Fc
T1 construct: whole, on cells; also called CD117 on cell surfaces; CD117+ cells
T1 sequence (P10721 26-976): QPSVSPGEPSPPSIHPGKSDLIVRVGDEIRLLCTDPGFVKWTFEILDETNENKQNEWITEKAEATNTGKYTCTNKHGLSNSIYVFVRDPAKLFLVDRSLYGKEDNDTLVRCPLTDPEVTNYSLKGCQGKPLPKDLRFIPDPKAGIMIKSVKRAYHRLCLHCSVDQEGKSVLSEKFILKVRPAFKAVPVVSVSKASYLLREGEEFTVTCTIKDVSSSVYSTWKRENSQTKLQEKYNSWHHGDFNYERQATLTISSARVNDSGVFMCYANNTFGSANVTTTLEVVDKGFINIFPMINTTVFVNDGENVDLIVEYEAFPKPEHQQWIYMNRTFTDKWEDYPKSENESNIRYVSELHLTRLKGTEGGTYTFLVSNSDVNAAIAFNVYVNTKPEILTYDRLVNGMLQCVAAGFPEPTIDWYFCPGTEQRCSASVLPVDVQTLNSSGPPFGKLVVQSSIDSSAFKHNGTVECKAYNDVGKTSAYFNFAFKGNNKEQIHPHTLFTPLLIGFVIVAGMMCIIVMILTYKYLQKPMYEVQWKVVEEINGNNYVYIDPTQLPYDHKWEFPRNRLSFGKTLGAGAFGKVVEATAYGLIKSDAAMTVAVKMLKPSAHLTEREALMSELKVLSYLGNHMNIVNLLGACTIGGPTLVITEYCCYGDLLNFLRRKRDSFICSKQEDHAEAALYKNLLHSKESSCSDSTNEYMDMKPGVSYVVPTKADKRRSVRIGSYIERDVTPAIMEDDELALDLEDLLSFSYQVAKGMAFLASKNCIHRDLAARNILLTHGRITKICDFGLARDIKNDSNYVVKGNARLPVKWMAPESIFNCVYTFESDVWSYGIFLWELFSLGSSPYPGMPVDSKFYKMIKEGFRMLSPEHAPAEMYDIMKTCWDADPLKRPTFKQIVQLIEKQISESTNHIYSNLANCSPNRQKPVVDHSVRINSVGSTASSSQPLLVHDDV
Each entry below lists one item and its recorded pEC50 value.
pEC50 here: minus log base 10 of the concentration, concentration in moles per litre.

Some solved cases for reference:
BINDER: P-0038 (Fc fusion, Any second Fc chain without VHH is not described in the text; also called monovalent form of P38; not shown: Fc fragment) EVQLVESGGGLVQAGGSLRLSCAASGRTSGSYVMGWFRQAPGKEREFVAAISWSAGMTYYADSVKGRFTISRDNAKNTVYLQMNSLKPEDTAVYYCAADQRGVPAYYSDYALYDYWGQGTQVTVSS
VAL: 8.00
//
BINDER: P-0027 (Fc fusion, Any second Fc chain without VHH is not described in the text; also called monovalent form of P27; not shown: Fc fragment) EVQLVESGGGLVRAGGSLRLSCAASGRTTFSTYWLGWFRQAPGKNREFVAAISWSAGMAYYQDSKGRFTISRDNTKNTAYLQMNSLQPEDTAVYYCAAGRFHPIRVDTALYWAQGTQVTVSS
VAL: 8.00
//
BINDER: P-0031 (Fc fusion, Any second Fc chain without VHH is not described in the text; also called monovalent form of P31; not shown: Fc fragment) EVQLVESGGGLVRAGGSLRLSCAASGRTFTYDARAWFRQAPGKEREFVAAISWSGGSTYYPNSMKGRFTISRDNAKNTVYLQMNSLKPEDTAVYYCAADESFPAYYSDYALYRYWGQGTLVTVSS
VAL: 8.40
//
BINDER: P-0035 (Fc fusion, Any second Fc chain without VHH is not described in the text; also called monovalent form of P35; not shown: Fc fragment) QVQLVESGGGLVQAGGSLRLSCAASGGTFSIYPVGWFRQAPGKQREFVAAIGWSASGTYYGDSVEGRFTVSRDNARSTVYLRMSSLKPDDTAVYYCAAASGSNWRLGAIDEYDSWGQGTQVTVSS
VAL: 7.52

Short answer for P-0010 (Fc fusion, Any second Fc chain without VHH is not described in the text; also called monovalent form of P10; not shown: Fc fragment) QVQLVESGGGLVQAGGSLRLSCVASGRTFSSYAMGWFRQGPGKEREFAAAILSNGLTTYYADSVKGRFTISRDNAKDTVYLQMNSLKPEDTANYYCAAAFTPEFRDGGIWDDASVDYWGQGTQVTVSS : pEC50 was 8.70

Consider P-0029 (Fc fusion, Any second Fc chain without VHH is not described in the text; also called monovalent form of P29; not shown: Fc fragment) QVHLVESGGGLVQAGGSLGLSCAASGHTFSNYAMGWFRQAPGKEREFVAAISWSGGSTLYADSVKGRFTISRDNGENTVYLQMNSLKPEDTAVYYCALDSTGVYGTGYVSSRKGRYEYWGQGTLVTVSS . Its measured pEC50 is 7.30
